Target: furin, P09958;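 note: purified furin at 1:10 enzyme:substrate in 50 mM HEPES pH 7.5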
Sequence (P09958 whole entry): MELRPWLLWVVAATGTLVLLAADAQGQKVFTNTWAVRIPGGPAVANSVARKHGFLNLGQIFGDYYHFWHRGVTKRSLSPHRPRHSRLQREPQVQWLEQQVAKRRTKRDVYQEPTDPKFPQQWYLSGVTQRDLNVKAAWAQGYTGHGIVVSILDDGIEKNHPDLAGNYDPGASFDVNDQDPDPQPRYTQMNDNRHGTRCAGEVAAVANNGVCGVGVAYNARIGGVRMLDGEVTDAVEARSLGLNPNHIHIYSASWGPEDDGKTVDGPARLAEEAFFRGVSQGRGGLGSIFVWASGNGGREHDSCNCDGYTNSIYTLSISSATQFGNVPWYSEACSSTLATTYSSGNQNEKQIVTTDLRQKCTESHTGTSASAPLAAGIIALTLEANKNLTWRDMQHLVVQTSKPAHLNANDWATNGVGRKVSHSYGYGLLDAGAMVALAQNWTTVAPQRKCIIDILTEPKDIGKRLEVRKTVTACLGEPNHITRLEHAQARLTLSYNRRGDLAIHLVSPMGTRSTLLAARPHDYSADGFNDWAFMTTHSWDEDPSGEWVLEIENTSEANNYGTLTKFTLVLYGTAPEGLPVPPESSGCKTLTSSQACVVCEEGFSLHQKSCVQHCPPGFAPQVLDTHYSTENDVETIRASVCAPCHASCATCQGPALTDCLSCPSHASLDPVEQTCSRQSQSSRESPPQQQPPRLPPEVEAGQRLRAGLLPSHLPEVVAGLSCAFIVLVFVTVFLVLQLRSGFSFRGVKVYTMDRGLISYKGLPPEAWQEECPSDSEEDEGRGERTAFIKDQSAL
Assay: furin cleavage Z-score vs untreated control; higher = more cleavage, active = 3.5 or more, inactive = 1 or less, 8 variable residues between constant flanks
Conditions: 15 min
The list shows a part of the results. No count for the full screen is at hand.
measurement_label: furin cleavage Z-score
Provide a numeric answer; units are not to be included.

// known answers, use as guide
CANWAVRTKLAGNASASA [HC1634] : 0.613
CAVVCKSMSYAGNASASA [HC91] : 0.255
CACCCRRKRSAGNASASA [FS-118] : 7.28
CARVERFKRDAGNASASA [FS-1567] : 11.1

Could you tell me which furin cleavage Z-score is on file for CAKGGRRSRNAGNASASA [FS-340] ?
5.15

Could you tell me which furin cleavage Z-score is on file for CALGGRRKRNAGNASASA [FS-1356] ?
12.5
